System: CCRIS mutagenicity, Ames/micronucleus/aberration tests
Experiment: CCRIS mutagenicity studies
Conditions: Test System: AMES SALMONELLA TYPHIMURIUM; Strain/Indicator: TA100; Metabolic Activation: RAT, LIVER, S-9, AROCLOR 1254 (10%); Method: PREINCUBATION
Calls of active or inactive are those of the source. How the calls were made is not given here.

COMPOUND	mutagenic call
CCCCCCC(C)COC(=O)c1ccccc1C(=O)OCC(C)CCCCCC (stereo not drawn)	inactive; negative
Nc1ccccn1	inactive; negative
CC(O)CN (stereo not drawn)	inactive; negative

---

Test system: CCRIS mutagenicity, Ames/micronucleus/aberration tests
Assay: CCRIS mutagenicity studies
Conditions: Test System: AMES SALMONELLA TYPHIMURIUM; Strain/Indicator: TA100; Metabolic Activation: HAMSTER, LIVER, S-9, AROCLOR 1254 (10%); Method: PREINCUBATION
From the text: The CCRIS database contains chemical records with carcinogenicity, mutagenicity, tumor promotion, and tumor inhibition test results. It was developed by the National Cancer Institute (NCI). Data are derived from studies cited in primary journals, current awareness tools, NCI reports, and other sources. Test results have been reviewed by experts in carcinogenesis and mutagenesis. CCRIS provides historical information from the years 1985 - 2011. It is no longer updated. […]
The source made the active and inactive calls. How the calls were made is not given here.
Outcome codes: active, inactive

COMPOUND	CLASS
CN1C[C@H](C(=O)N[C@]2(C)O[C@@]3(O)[C@@H]4CCCN4C(=O)[C@H](Cc4ccccc4)N3C2=O)C=C2c3cccc4[nH]cc(c34)C[C@H]21	inactive
NC(=O)c1cnccn1	inactive
CN1CCC(CN2c3ccccc3Sc3ccccc32)C1 (configuration not stated)	inactive
CCCCCCCCCCCCCCC1CO1 (configuration not stated)	inactive
O=S1OCC2C(CO1)C1(Cl)C(Cl)=C(Cl)C2(Cl)C1(Cl)Cl (configuration not stated)	inactive
Cl/C=C/Cl	inactive
CN(CCO)CCO	inactive
CCNc1cc(O)ccc1C	active
CC(N)Cc1ccccc1 (configuration not stated)	inactive
C=CC[Si](C)(C)C	inactive
CC(C)(c1ccc(OCC2CO2)cc1)c1ccc(OCC2CO2)cc1 (configuration not stated)	active
Nc1c2ccccc2nc2ccccc12	inactive
OC1C2(Cl)C3(Cl)C4(Cl)C(Cl)(Cl)C5(Cl)C3(Cl)C1(Cl)C5(Cl)C24Cl (configuration not stated)	inactive
Nc1ccccc1C(=O)O	inactive
CN(C)CCC(c1ccccc1)c1ccccn1 (configuration not stated)	inactive
Nc1ccc(N)c2c1C(=O)c1c(N)ccc(N)c1C2=O	inactive
CCCCCNCCCCC	inactive
CCCCC(CC)COCCCN (configuration not stated)	inactive
C=C(C)c1ccccc1	inactive
COP(=O)(OC)C(O)C(Cl)(Cl)Cl (configuration not stated)	inactive
Nc1ccc2ccccc2c1N=Nc1ccc([N+](=O)[O-])cc1	active
CCCC(=O)c1cc(O)c(O)cc1O	inactive

---

Test system: CCRIS mutagenicity, Ames/micronucleus/aberration tests
Assay: CCRIS mutagenicity studies
Settings: Test System: AMES SALMONELLA TYPHIMURIUM; Strain/Indicator: TA98; Metabolic Activation: RAT, LIVER, S-9, AROCLOR 1254 (10%); Method: PREINCUBATION
Calls of active or inactive are those of the source. No rule for the calls is given here.
EXPERIMENTAL_READOUT: mutagenic call

COMPOUND	DATA_VALUE
O=C1CCc2ccccc2O1	inactive; negative
C=C(C)C(=O)OCCCC	inactive; negative
CN1CCC(CN2c3ccccc3Sc3ccccc32)C1 (configuration not stated)	inactive; negative
CCCCCNCCCCC	inactive; negative
CCCCCCC(C)COC(=O)c1ccccc1C(=O)OCC(C)CCCCCC (configuration not stated)	inactive; negative
CCCCCCCCCCCCCCC1CO1 (configuration not stated)	inactive; negative
O=Cc1ccccc1Cl	inactive; negative
CCCCCCCCCCCOC(=O)c1ccccc1C(=O)OCCCCCCCCCCC	inactive; negative
Nc1ccccc1C(=O)OC/C=C/c1ccccc1	inactive; negative
CC(=O)/C=C/C1=C(C)CCCC1(C)C	inactive; negative
COc1ccc(CN(CCN(C)C)c2ccccn2)cc1	inactive; negative
CC(C)CCC[C@@H](C)[C@H]1CC[C@H]2[C@@H]3CC=C4C[C@@H](OC(=O)Cc5ccc(N(CCCl)CCCl)cc5)CC[C@]4(C)[C@H]3CC[C@]12C	inactive; negative
CCNc1cc(O)ccc1C	active; positive
Nc1ccc(F)cc1F	inactive; negative
CCCCC(CC)COC(=O)c1ccccc1C(=O)OCC(CC)CCCC (configuration not stated)	inactive; negative
C[C@](N)(Cc1ccc(O)c(O)c1)C(=O)O	inactive; negative
COP(=O)(OC)C(O)C(Cl)(Cl)Cl (configuration not stated)	inactive; negative
c1ccoc1	inactive; negative
CC(=O)OCc1ccco1	active; positive
COc1ccc(C=O)cc1OC	inactive; negative
O=C(O)c1ccc(S(=O)(=O)N(Cl)Cl)cc1	inactive; negative
Nc1ccn([C@@H]2O[C@H](CO)[C@@H](O)[C@@H]2O)c(=O)n1	inactive; negative
C=C(C)C1CC=C(C)C(O)C1 (configuration not stated)	inactive; negative
[Cl][Pd][Cl]	inactive; negative
Nc1ccc(Cl)cc1N	active; positive
O=S1OCC2C(CO1)C1(Cl)C(Cl)=C(Cl)C2(Cl)C1(Cl)Cl (configuration not stated)	inactive; negative
C[C@H](CCC(=O)O)[C@H]1CC[C@H]2[C@@H]3CC[C@@H]4C[C@H](O)CC[C@]4(C)[C@H]3CC[C@]12C	inactive; negative
Oc1c(Cl)c(Cl)cc(Cl)c1Cl	inactive; negative
CC(N)Cc1ccccc1 (configuration not stated)	inactive; negative
CN1C[C@H](C(=O)N[C@]2(C)O[C@@]3(O)[C@@H]4CCCN4C(=O)[C@H](Cc4ccccc4)N3C2=O)C=C2c3cccc4[nH]cc(c34)C[C@H]21	inactive; negative
OCCCCl	inactive; negative
C=CC[Si](C)(C)C	inactive; negative

Source listed as PubChem BioAssay AID1259407.
